# Tested On: Man(a1-3)[Man(a1-6)]Man
# Assay Summary: glycan array binding signal (z-score within array); higher = stronger binding
# Protocol Conditions: glycan notation: IUPAC condensed, linker removed
The full list was thinned out, with the strongest signals kept by preference.
We begin with a simple list: items and their reported glycan array binding signal (z-score).
Hey, just send me the number, nothing else.

Prompt: Give glycan array binding signal (z-score) for the following binder: SP16665A-bot-344-23-344 (Bacteroides ovatus) (protein) SDNEFPDFDYQTVYFANQYGLRTIELGESEFVDNTLDNQHKMVIKAAWGGGYTNRNNVVINFKVDESLCDNLYFKDTDQPLVPMPASYYTLASDRIAIPKGQIMAGVEVQLTDDFFADEKSISENYVIPLLMTNVQGADSILQGKPVVENPVLTNAGDWSILPQNFVLYAVKYVNPWHGEYLRRGIDHATVAGTSKDIIRHEQFVENDEVVNISTKSMKDNLLTLKTKDESGKDISYTVRLSFAEDGSCTVHSGSQNVVVSGSGKFVSKGEKNSLGGKDRNAIYLDYTVNLTDNNIQLATKDTLVLRTRNVYGGKSLEVVRK
Response: -0.441

Prompt: Please give the documented glycan array binding signal (z-score) of IRP60A (Homo sapiens), Q9UGN4 (protein) MWLPWALLLLWVPGCFALSKCRTVAGPVGGSLSVQCPYEKEHRTLNKYWCRPPQIFLCDKIVETKGSAGKRNGRVSIRDSPANLSFTVTLENLTEEDAGTYWCGVDTPWLRDFHDPVVEVEVSVFPASTSMTPASITAAKTSTITTAFPPVSSTTLFAVGATHSASIQEETEEVVNSQLPLLLSLLALLLLLLVGASLLAWRMFQKWIKAGDHSELSQNPKQAATQSELHYANLELLMWPLQEKPAPPREVEVEYSTVASPREELHYASVVFDSNTNRIAAQRPREEEPDSDYSVIRKT
Response: 8.07
